# System: OVCAR-3 ovarian
# Test Description: NCI-60 one-dose screen, 48 h (100 = growth as untreated, 0 = no growth, -100 = all killed)
# Settings: 10 µM unless noted
This is part of a sample that, as a whole, favours compounds with a hit. Of some 83,000 tested, about 20% had one in any assay.
Observable: growth (%)
Please state the figure in %; there is no need to write the unit.

Guide cases for growth, answers given:
- Compound: "O=C(Nc1ccc([N+](=O)[O-])cc1)C(Cl)(Cl)Cl"
  growth [%]: 117
- Compound: "COc1cccc(C=NC(Cc2cnc[nH]2)C(=O)O)c1O (centres undefined)"
  growth [%]: 102
- Compound: "COc1cc2c(cc1OCCCCn1c(-c3cccs3)nc3ccccc31)N=C[C@@H]1CCCN1C2=O"
  growth [%]: -10.9
- Compound: "Cc1ccc(C(Cc2ccccc2)NCCO)cc1 (centres undefined)"
  growth [%]: 100
- Compound: "COC(=O)[C@@H](C)C[C@H](Cc1ccccc1)NC(=O)c1nc([C@@H](C[C@H](C(C)C)N(C)C(=O)[C@@H](NC(=O)[C@H]2CCCCN2C)C(C)C)OC(C)=O)sc1C"
  growth [%]: -37.8
- Compound: "CCOC(=S)S[C@H]1C[C@@H]2[C@H](CC[C@]3(C)C(=O)CC[C@@H]23)[C@@]2(C)CCC(=O)C=C12"
  growth [%]: 115

**Query** # lookup: growth of CN(C)C(=O)Oc1ccccc1-c1ccccc1
**Result** 108

**Query** # lookup: growth of C[CH2][Sn]([Cl])([Cl])[CH2]C.Oc1ccccc1C=NCCN=Cc1ccccc1O
**Result** 103

**Query** # lookup: growth of CNC(=O)Oc1ccc(C(C)(C)C)cc1OC(=O)NC
**Result** 102

---

# System: SF-268 CNS
# Test Description: NCI-60 one-dose screen, 48 h
# Settings: 10 µM unless noted
About 83,000 compounds went through this panel and 20% of them were active in at least one assay; those are over-represented in the sample as a whole. The source made the active and inactive calls. How the source made its calls: active means growth percent below 10; inactive means the rest.
// allowed return values: active, inactive

Solved cases below.
- Compound: "CCOC(=O)[C@@H](C)C[C@H](Cc1ccccc1)NC(=O)c1nc([C@@H](C[C@H](C(C)C)N(C)C(=O)[C@@H](NC(=O)[C@H]2CCCCN2C)C(C)C)OC(C)=O)sc1CCOCc1ccccc1"
  System Name: "SF-268 CNS"
  Assigned Category: "active"
- Compound: "CNC(=O)Oc1cccc(C(F)(F)F)c1"
  System Name: "SF-268 CNS"
  Assigned Category: "inactive"
- Compound: "COc1ccc(C(O)(C(=O)O)c2ccc(OC)cc2)cc1"
  System Name: "SF-268 CNS"
  Assigned Category: "inactive"
- Compound: "CC(=O)O[C@H]1CC[C@H]2[C@@H]3CC=C4c5nc(-c6ccccc6)sc5CC[C@]4(C)[C@H]3CC[C@]12C"
  System Name: "SF-268 CNS"
  Assigned Category: "inactive"

**Query** Lab log entry: COc1cc2c(=O)n(C3CCCCCCC3)c3c4cc[nH]c4ncc3c2cc1OC — outcome as called in the assay?
**Result** inactive

**Query** Lab log entry: COc1ccc(/C=C\c2cc(OC)c(OC)c(OC)c2)cc1NC(=O)/C=C/c1cc(OC)c(OC)c(OC)c1 — outcome as called in the assay?
**Result** inactive

**Query** Lab log entry: CCCCCCCCCCCCCCCCCC1OC[C@@H](COC(=O)O[C@@H](C(=O)O[C@H]2C[C@@]3(O)[C@@H](OC(=O)c4ccccc4)[C@@H]4[C@]5(OC(C)=O)CO[C@@H]5C[C@H](O)[C@@]4(C)C(=O)[C@H](OC(C)=O)C(=C2C)C3(C)C)[C@@H](NC(=O)c2ccccc2)c2ccccc2)O1 (stereo partly drawn) — outcome as called in the assay?
**Result** inactive

**Query** Lab log entry: NC(=O)c1c(Br)n(C2OC(CO)C(O)C2O)c2ncnc(N)c12 (stereo not drawn) — outcome as called in the assay?
**Result** inactive

meta.source: PubChem BioAssay (NCI)
